# Tested on: endosomes of Jurkat lymphocytes
# EXPERIMENT NOTES: Endosome disruption in Jurkat lymphocytes: release of carboxyfluorescein from disulfide probe Compound 2, flow cytometry
# CONDITION PARAMETERS: read-out: Potency; Table 2; EC50 ± standard deviation; Jurkat lymphocytes, disulfide-linked fluorescent probe (2.5 μM), 14 h
Non-standard residues stand in square brackets, D forms with d. Residues, ends and D or L forms follow the SMILES beside them. Aib = CC(C)(N)C(=O)O
RESULT TYPE: EC50 (nM)
Write down the numeric answer in nM and omit the unit.

molecule="CC(C)[C@H](NC(=O)[C@@H](NC(=O)[C@@H]1CCCN1C(=O)[C@@H]1CCCN1C(=O)[C@H](Cc1ccc(O)cc1)NC(=O)[C@H](Cc1c[nH]c2ccccc12)NC(=O)[C@H](Cc1ccc(O)cc1)NC(=O)[C@H](Cc1c[nH]c2ccccc12)NC(=O)[C@H](C)NC(=O)[C@H](Cc1ccc(O)cc1)NC(=O)[C@H](Cc1c[nH]c2ccccc12)NC(=O)[C@H](C)NC(=O)C(C)(C)NC(=O)C(C)(C)NC(=O)C(C)(C)NC(=O)C(C)(C)N)C(C)C)C(N)=O [Compound 81] (H-[Aib][Aib][Aib][Aib]AWYAWYWYPPVV-NH2)" units=nM observed_measurement=9000
molecule="CC(C)[C@H](NC(=O)[C@@H](NC(=O)[C@@H]1CCCN1C(=O)[C@@H]1CCCN1C(=O)[C@H](Cc1ccc(O)cc1)NC(=O)[C@H](Cc1c[nH]c2ccccc12)NC(=O)[C@H](C)NC(=O)[C@H](Cc1c[nH]c2ccccc12)NC(=O)[C@H](Cc1c[nH]c2ccccc12)NC(=O)[C@H](C)NC(=O)[C@H](Cc1c[nH]c2ccccc12)NC(=O)[C@H](Cc1c[nH]c2ccccc12)NC(=O)C(C)(C)NC(=O)C(C)(C)NC(=O)C(C)(C)NC(=O)C(C)(C)N)C(C)C)C(N)=O [Compound 79] (H-[Aib][Aib][Aib][Aib]WWAWWAWYPPVV-NH2)" units=nM observed_measurement=220
molecule="CC(C)[C@H](NC(=O)[C@@H](NC(=O)[C@@H]1CCCN1C(=O)[C@@H]1CCCN1C(=O)[C@H](Cc1ccc(O)cc1)NC(=O)[C@H](Cc1c[nH]c2ccccc12)NC(=O)[C@H](C)NC(=O)[C@H](Cc1ccc(O)cc1)NC(=O)[C@H](Cc1c[nH]c2ccccc12)NC(=O)[C@H](C)NC(=O)[C@H](Cc1ccc(O)cc1)NC(=O)[C@H](Cc1c[nH]c2ccccc12)NC(=O)C(C)(C)NC(=O)C(C)(C)NC(=O)C(C)(C)NC(=O)C(C)(C)N)C(C)C)C(N)=O [Compound 80] (H-[Aib][Aib][Aib][Aib]WYAWYAWYPPVV-NH2)" units=nM observed_measurement=280

We next turn to a different molecule, shown below.
Consider the molecule shown here: CC(C)[C@H](NC(=O)[C@@H](NC(=O)[C@@H]1CCCN1C(=O)[C@@H]1CCCN1C(=O)[C@H](Cc1c[nH]c2ccccc12)NC(=O)[C@H](Cc1ccc(O)cc1)NC(=O)[C@H](C)NC(=O)[C@H](Cc1c[nH]c2ccccc12)NC(=O)[C@H](Cc1c[nH]c2ccccc12)NC(=O)C(C)(C)NC(=O)C(C)(C)NC(=O)C(C)(C)NC(=O)C(C)(C)N)C(C)C)C(N)=O [Compound 44] (H-[Aib][Aib][Aib][Aib]WWAYWPPVV-NH2) What is its recorded EC50?
5000
